- Test system: CHO-parent cells
- Method description: Flow cytometry binding assay on CHO-parent cells (background binding)
- Set-up: species or system Chinese Hamster
- Test context: Table 6E; IgG titration

Molecule	Bmax CHO Parent
GLP1R221-084: GLP1R-221 variant, optimized from GLP1R-3 (antibody, V domains shown) VH: QVQLVESGGGVVQPGRSLRLSCAASGFAFSNYGMHWVRQAPGKGLEWVAVISSDENNKYYADSVKGRFTISRDNSKNTLYLQMNSLRAEDTAVYYCAKHMSMQEGAVTGEMQAAKEFIAWLVKGRVRADLVGDAFDVWGQGTLVTVSS VL: QSVLTQPPSVSAAPGQKVTISCSGSSSNIADNYVSWYQQLPGTAPKLLIYENNRRPSGIPDRFSGSKSGTSATLGITGLQTGDEADYYCGTWDVSLSVGMFGGGTKLTVL	266.6

Where do the numbers come from? From patent US12391762B2.
